B1: HDAC6 (parent)
chain: QYMNEGELRVLADTYDSVYLHPNS

Variants of: B1
PROTOCOL: protein stability index of a GFP-peptide fusion (GPS, HEK-293T) (PSI 1-6); higher = more stable;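 also: lentivirally expressed fusions sorted by FACS into six bins by GFP to DsRed ratio, PSI derived from sequencing read proportions per bin multiplied by bin number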
CONDITION_SUMMARY: c terminus: a fixed tail appended
# reported protein stability index; entries follow
// print number alone

R9D = 2

Value lookup for protein stability index; key = G6R 2.03

Value lookup for protein stability index; key = S17M 1.95
